Recorded Ki for compounds tested on Prostaglandin E2 receptor EP2 subtype (Homo sapiens, UniProt P43116), drawn from a number of studies.
Sequence (P43116 whole entry): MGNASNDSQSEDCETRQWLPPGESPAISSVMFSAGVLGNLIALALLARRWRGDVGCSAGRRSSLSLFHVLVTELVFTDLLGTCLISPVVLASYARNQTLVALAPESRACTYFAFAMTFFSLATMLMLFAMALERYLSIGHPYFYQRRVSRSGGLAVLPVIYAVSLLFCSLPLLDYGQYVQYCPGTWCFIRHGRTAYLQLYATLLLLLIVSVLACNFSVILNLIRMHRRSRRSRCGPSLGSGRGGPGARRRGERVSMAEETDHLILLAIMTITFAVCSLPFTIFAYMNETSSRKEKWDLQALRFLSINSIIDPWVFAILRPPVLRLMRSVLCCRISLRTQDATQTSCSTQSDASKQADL
Measured attribute: Ki (nM)

Some solved cases for reference:
>  <Compound>
O=C(O)c1ccc(CCN2C(=O)CCN2CCC(O)Cc2cccc(C(F)(F)F)c2)cc1 (stereo not given)

>  <Unit>
nM

>  <Reading>
6000

$$$$
>  <Compound>
O=C(O)/C=C/c1ccccc1-c1cccc(-c2ccccc2OCc2ccccc2)c1

>  <Unit>
nM

>  <Reading>
830

$$$$
>  <Compound>
O=C(O)CNc1ccccc1-c1csc(-c2ccccc2OCc2ccccc2)c1

>  <Unit>
nM

>  <Reading>
2500

$$$$
>  <Compound>
Cc1cccc(OCCCOc2ccc(-c3ccccc3COC(=O)NS(=O)(=O)c3cccs3)cc2)c1

>  <Unit>
nM

>  <Reading>
2100

$$$$

A: CCOc1c2c(c(OCC)c3ncccc13)CN(c1ccc(CS(=O)(=O)NC(=O)Cc3ccccc3OC)cc1C)C2=O
B: CSc1cccc(-c2ccccc2CCC(=O)NS(=O)(=O)c2cccs2)c1
C: CC(Cc1ccccc1-c1csc(-c2ccccc2OCc2ccccc2)c1)C(=O)O (stereo not given)
D: CCCC/C=C\C=C\[C@H]1CCC(=O)N1CCc1ccc(C(=O)O)cc1
E: Cc1cccc(OCCCOc2ccc(-c3ccccc3CNC(=O)NS(=O)(=O)c3cccs3)cc2)c1
// smallest Ki at index 0, largest at the end Answer format: the labels, in the requested order.
D, A, C, E, B
